- Assay Context: buffer; pH 7.4; 200.0 µM

| Compound | solubility kinetic |
| --- | --- |
| CC(NC(=O)C12CC3CC(CC(O)(C3)C1)C2)c1ccccc1 (centres undefined) | > 44.9 µg/mL |
| COCCCNc1nc(N)c([N+](=O)[O-])c(Nc2cc(OC)ccc2OC)n1 | < 0.1 µg/mL |
| CN(C)c1ccncc1C(=O)Nc1ccc(F)cc1F | > 41.6 µg/mL |
| O=C(CN1C(=O)NC2(CCCC2)C1=O)NCc1ccc(F)cc1 | > 47.9 µg/mL |
| CC1(C)CC2(CCO1)C(Nc1ccccc1)=NC(=S)N2CC(N)=O (centres undefined) | > 52 µg/mL |
| COC(=O)c1ccsc1-n1cc(C#N)c(=O)n(C)c1=O | > 43.7 µg/mL |
| COc1ccc(NC2=CC(=O)CC(C)(C)C2)cc1 | > 36.8 µg/mL |
| Cc1ccc(-c2nc(C(Cl)Cl)c3ccccc3n2)cc1 | < 0.3 µg/mL |
| Cc1occc1C(=O)Nc1cnn(CCCC(=O)O)c1 | > 41.6 µg/mL |
| NC(=O)CCn1ccc2ccccc21 | > 28.2 µg/mL |
| CCOC(=O)CNC(=O)c1ccc(Br)s1 | > 43.8 µg/mL |
| C=CCN(CC(=O)NC1CC1)S(=O)(=O)c1cccc(C(F)(F)F)c1 | > 54.4 µg/mL |
| Cc1ccc(NC(=O)CCc2c[nH]c3ccccc23)nc1 | > 41.9 µg/mL |
| CC1C(=O)C(C)C(c2ccc(Cl)cc2)NC1c1ccc(Cl)cc1.Cl (centres undefined) | < 0.8 µg/mL |
| O=C(CN1C(=O)CCC1=O)NC(=O)NC1CCCC1 | > 40.1 µg/mL |
| O=C(Cc1cccc2ccccc12)Nc1cc(Cl)ccc1C(=O)O | > 51 µg/mL |
| Cc1cc[n+](C(C)C(=O)c2ccc(Cl)cc2)cc1.[Br-] (centres undefined) | > 51.1 µg/mL |
| O=C(O)c1ccc(-c2ccccc2)[nH]c1=O | > 32.3 µg/mL |
| Nc1ccc(-c2cnc[nH]2)cc1[N+](=O)[O-] | > 30.6 µg/mL |

====

- Assay Context: buffer; pH 7.4; 200.0 µM
Reported solubility kinetic by item:

| Compound | solubility kinetic |
| --- | --- |
| O=C(NC1=NCCS1)c1ccccc1Br | > 0.0428 mg/mL |
| COc1ccc(/C=N/NC(=O)c2ccc[nH]2)cc1 | > 0.0365 mg/mL |
| Cc1cc(NC(=O)COC(=O)C2CC(=O)N(c3ccccc3)C2)no1 (configuration not stated) | > 0.0515 mg/mL |
| O=S(=O)(NCc1ccc2c(c1)OCO2)c1cccc(F)c1 | > 0.0464 mg/mL |
| O=C(NCC1CC1)c1ccccc1Cl | > 0.0315 mg/mL |
| CCc1cccc(CC)c1NC(=O)CSc1nnc(C2CC2)n1C | > 0.0517 mg/mL |
| Cc1ccc(S(=O)(=O)c2nc(-c3ccccc3Cl)oc2N(C)C2CCN(C)CC2)cc1 | > 0.069 mg/mL |
| O=C(NCCCn1ccnc1)c1ccccc1Cl | > 0.0396 mg/mL |
| COCCCN(C(=S)Nc1ccc(OC)cc1)C(C)c1ccncc1 (configuration not stated) | > 0.0539 mg/mL |
| CCC(C)(C)NC(=O)c1ccc2c(c1)OCCO2 | > 0.0374 mg/mL |
| COC(=O)c1sc(SC)c(-c2ccon2)c1C | < 0.0006 mg/mL |
| COc1ccccc1NC(=O)CCN1C(=O)c2ccccc2S1(=O)=O | > 0.0541 mg/mL |
| O=C(O)CCC(=O)Nc1cccc(C(=O)c2ccccc2)c1 | > 0.0446 mg/mL |
| O=C(NCc1ccc2c(c1)OCO2)c1cc([N+](=O)[O-])ccc1N1CCOCC1 | > 0.0578 mg/mL |
| CCC(C)(C)c1ccc(OC(=O)c2cccnc2Cl)cc1 | < 0.0007 mg/mL |
| NC(=O)Cn1nc([N+](=O)[O-])nc1Oc1ccccc1F | > 0.0422 mg/mL |
| CCCN(CCC)S(=O)(=O)c1ccc(C(=O)O)cc1 | > 0.0428 mg/mL |
